Where do the numbers come from? From patent US20240400579A1.

Tested on: zymostenol accumulation in EpiSC-derived OPCs (EBP)
Experiment: GC/MS-based sterol profiling, zymostenol accumulation
Type: cell-based, mouse
Conditions: 24 hours, 8 doses from 0.15 nM to 333 nM, read-out: mZymo GCMS EC50
Measurement kind: log10 EC50 (log10 of the value in nM)
Reminder: these figures are log10 of reported EC50, in nM before transformation.

Query: Which log10 EC50 value belongs to CC(Cc1ccc(F)c(F)c1)CN1CCC2(CC1)CS(=O)(=O)C2 (single isomer, unassigned) [212B*] ?
Result: 0.32

Query: What value of log10 EC50 has been recorded for this entry: C[C@H](Cc1ccc([C@H]2CC[C@](O)(C(F)(F)F)CC2)c(Cl)c1)CN1CCC2(C1)CS(=O)(=O)C2 (stereo in doubt) [116B*]
Result: -0.09

Query: Using the record for C[C@@H](Cc1ccc([C@H]2CC[C@](C)(O)CC2)c(Cl)c1)CN1CCC2(C1)CS(=O)(=O)C2 (mixture of isomers) [Compound 123B] , report its log10 EC50.
Result: 0.38

Query: Look up log10 EC50 for this molecule: C[C@H](Cc1ccc([C@H]2CC[C@](C)(O)CC2)c(Cl)c1)CN1CCC2(C1)CS(=O)(=O)C2 (mixture of isomers) [Compound 123A]
Result: 1.15

Query: Form field: reported log10 EC50 of C[C@@H](Cc1ccc([C@H]2CC[C@](O)(C(F)(F)F)CC2)c(Cl)c1)CN1CCC2(C1)CS(=O)(=O)C2 (stereo in doubt) [116A*]
Result: -0.31

Query: What value of log10 EC50 has been reported for the following molecule? C[C@H](CN1CCC2(CC1)CS(=O)(=O)C2)Oc1ccc(F)c(F)c1 (single isomer, unassigned) [221B*]
Result: 0.66

----------
Target: human emopamil binding protein and human 7-dehydrocholesterol reductase co-expressing cell membrane (Homo sapiens (Human), UniProt Q15125)
Sequence (Q15125 whole entry): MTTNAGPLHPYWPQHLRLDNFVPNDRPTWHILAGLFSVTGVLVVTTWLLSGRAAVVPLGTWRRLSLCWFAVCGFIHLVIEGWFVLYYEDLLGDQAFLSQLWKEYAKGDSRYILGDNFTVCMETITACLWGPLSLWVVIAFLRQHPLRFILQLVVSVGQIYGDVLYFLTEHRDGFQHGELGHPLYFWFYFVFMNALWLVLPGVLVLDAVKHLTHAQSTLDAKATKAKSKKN
Exercise: for every item that follows, state its recorded pKi.
pKi is a log-scale quantity: -log10 of the concentration expressed in molar.

Query: // lookup pKi for C[C@H](Cc1cnc(C(F)(F)F)nc1)CN1CCC2(C1)CS(=O)(=O)C2 (single isomer, unassigned) [Compound 145B]
Result: 6.97

Query: Looking for the measured pKi of `O=S1(=O)CCC2(CC1)CN(CCOc1ccc(F)c(F)c1)C2` , can you help?
Result: 7.39

Query: Which measured pKi value corresponds to `CC(C)(CN1CCC2(C1)CS(=O)(=O)C2)Oc1ccc(C(F)(F)F)cc1` ?
Result: 7.75

Query: Name the reported pKi value associated with the compound C[C@H](Cc1cnc(C(F)(F)F)nc1)CN1CCC2(CC1)CS(=O)(=O)C2 (single isomer, unassigned) [215B*]
Result: 6.87

Query: Given O=S1(=O)CC2(CCN(CCOc3cnc([C@H]4CCC[C@H](C(F)(F)F)C4)nc3)CC2)C1 (relative stereo) [Compound 248A] , state its recorded pKi.
Result: 7.83

Query: Could you tell me which pKi is on file for C[C@H](Cc1ccc(C(F)(F)F)nc1)CN1CC2(CCS(=O)(=O)CC2)C1 (single isomer, unassigned) [234A*] ?
Result: 6.60

Query: Sample O=S1(=O)CC2(CCN(CCOc3ccc([C@H]4CC[C@@H](C(F)(F)F)CC4)nc3)CC2)C1 [247B*] — what was its pKi?
Result: 8.05

Query: Consider the compound `CC(C)(CN1CCC2(CC1)CS(=O)(=O)C2)Oc1ccc(F)c(C(F)(F)F)c1` and give its measured pKi.
Result: 7.92

Query: For the compound shown here, `O=S1(=O)CC2(CCN(CCOc3ccc(C(F)(F)F)c(F)c3)CC2)C1` , give the reported pKi.
Result: 8.10

Query: Need pKi of C[C@H](Cc1ccc(C(F)F)cc1)CN1CCC2(C1)CS(=O)(=O)C2 (single isomer, unassigned) [Compound 128B] , thanks.
Result: 7.59

Query: If you can, please state the reported pKi value of `O=S1(=O)CCC2(CC1)CN(CCOc1ccc(F)c(Cl)c1)C2` .
Result: 7.66

Query: Entry C[C@H](Cc1ccc(C(F)(F)F)cc1)CN1CCC2(CC1)CS(=O)(=O)C2 (single isomer, unassigned) [216B*] : reported pKi = ?
Result: 7.81

Query: Which pKi is listed for C[C@H](Cc1ccc(C(F)(F)F)cc1)CN1CCC2(C1)CS(=O)(=O)C2 (single isomer, unassigned) [114B*] ?
Result: 8.23

Query: Which measured pKi value corresponds to C[C@@H](Cc1ccc(C(F)F)cc1)CN1CCC2(C1)CS(=O)(=O)C2 (single isomer, unassigned) [Compound 128A] ?
Result: 7.53

Query: Item under review: C[C@@H](Cc1cnc(C(F)(F)F)nc1)CN1CCC2(C1)CS(=O)(=O)C2 (single isomer, unassigned) [Compound 145A] . Reported pKi?
Result: 7.16

Query: For the compound `CC(C)(CN1CCC2(C1)CS(=O)(=O)C2)Oc1ccc(F)cc1` , what pKi is on record?
Result: 7.83

Query: I'd like to know its pKi. The compound in question is `O=S1(=O)CC2(CCN(CC3(Cc4ccc(C(F)(F)F)nc4)CC3)C2)C1`
Result: 7.76

Query: Requested read-out: pKi. Entry: O=S1(=O)CC2(CCN(CC[C@@H](F)c3ccc(C(F)(F)F)nc3)CC2)C1 (single isomer, unassigned) [237B*]
Result: 6.93

Query: Give its pKi value. Item: O=S1(=O)CC2(CCN(CCOc3ccc([C@H]4CC[C@H](C(F)(F)F)CC4)nc3)CC2)C1 [247A*]
Result: 8.24

Query: Using the record for `CC(C)(CN1CCC2(CC1)CS(=O)(=O)C2)Oc1ccc(C(F)(F)F)nc1` , report its pKi.
Result: 7.71

Query: Reported pKi, compound `CC(C)(Cc1ccc(C(F)(F)F)cn1)CN1CCC2(C1)CS(=O)(=O)C2` : ____
Result: 7.52

Query: Reported pKi for C[C@H](Cc1ccc(C(F)(F)F)cn1)CN1CCC2(C1)CS(=O)(=O)C2 (single isomer, unassigned) [121B*] : what is it?
Result: 6.85

Query: Param item = C[C@@H](Cc1ccnc(C(F)(F)F)c1)CN1CCC2(C1)CS(=O)(=O)C2 (single isomer, unassigned) [Compound 126A] ; retrieve measured pKi.
Result: 7.32

Query: Which value of pKi has been reported for COC(Cc1ccc(C(F)(F)F)cc1)CN1CCC2(C1)CS(=O)(=O)C2 (racemic) in the records?
Result: 7.90

Query: Recorded pKi of `O=S1(=O)CC2(CCN(CCOc3ccc(C(F)(F)F)cc3)C2)C1` , please.
Result: 7.87

Query: What pKi value was documented for this compound, `Cc1nc(C(F)(F)F)ccc1OCCN1CCC2(CC1)CS(=O)(=O)C2` ?
Result: 7.28

Query: Sample `O=S1(=O)CC2(CCN(CCOc3ccc(Cl)c(F)c3)CC2)C1` — what was its pKi?
Result: 7.88

Query: For the compound `CC(C)(CN1CCC2(CC1)CS(=O)(=O)C2)Oc1ccc(C(F)(F)F)cc1` , what pKi is on record?
Result: 8.30

Query: Look up pKi: C[C@@H](Cc1ccc(C(F)(F)F)nc1)CN1CC2(CCS(=O)(=O)CC2)C1 (single isomer, unassigned) [234B*]
Result: 6.71

Query: Returns the measured pKi for the input compound. Input: C[C@H](Cc1ccc(OC(F)(F)F)cc1)CN1CCC2(C1)CS(=O)(=O)C2 (single isomer, unassigned) [119B*]
Result: 7.98

----------
Can you tell me log10(EC50) for the items I'm about to list?
System: EpiSC-derived OPCs
Test: In vitro phenotypic screening of OPCs, MBP high-content imaging
Format: cell-based, mouse
Conditions: Mus musculus, 72 h, percentage of MBP+ oligodendrocytes; 3 days; 0.5 nM to 1000 nM; read-out: mOPC EC50
A value of 2 here means EC50 of 100 in µM, since values are log10.

Query: I am curious: what log10(EC50) value has been reported for CCC(C)(C)c1ccc(CCC(C)N2CCC3(C2)CS(=O)(=O)C3)cc1 (racemic) ?
Result: -0.59

Query: Endpoint output: log10(EC50) of CC(C)(CN1CC[C@@]2(CCS(=O)(=O)C2)C1)Oc1ccc(C(F)(F)F)cc1 (single isomer, unassigned) [Compound 141A] . Value?
Result: -1.68

Query: # get_value(readout='log10(EC50)', item= C[C@H](Cc1cnc(C(F)(F)F)nc1)CN1CCC2(CC1)CS(=O)(=O)C2 (single isomer, unassigned) [215B*] )
Result: -1.29

Query: What does the record list as log10(EC50) for `CC(C)(Cc1cncc(C(F)(F)F)c1)CN1CCC2(C1)CS(=O)(=O)C2` ?
Result: -2.20

Query: I'd like to know its log10(EC50). The compound in question is CC(Cc1ccc(F)c(F)c1)CN1CCC2(CC1)CS(=O)(=O)C2 (single isomer, unassigned) [212A*]
Result: -2.33

Query: State the recorded log10(EC50) for this entry: `O=S1(=O)CC2(CCN(CCOc3ccc(F)cn3)CC2)C1`
Result: -0.87

Query: Give its log10(EC50) value. Item: C[C@@H](Cc1ccc(C(F)(F)F)cn1)CN1CCC2(C1)CS(=O)(=O)C2 (single isomer, unassigned) [121A*]
Result: -1.64

Query: log10(EC50); subject: C[C@H](Cc1ccc(C2(C)CC2)cc1)CN1CCC2(C1)CS(=O)(=O)C2 (single isomer, unassigned) [111B*]
Result: -2.82

Query: Please report the recorded log10(EC50) for `O=S1(=O)CC2(CCN(CCCc3ccc(C(F)(F)F)cc3)C2)C1` .
Result: -1.74

Query: Return reported log10(EC50); argument: C[C@H](Cc1ccnc(C(F)(F)F)c1)CN1CCC2(C1)CS(=O)(=O)C2 (single isomer, unassigned) [Compound 126B]
Result: -0.64

Query: Recorded log10(EC50) for `O=S1(=O)CCC2(CC1)CN(CCOc1ccc(C(F)(F)F)cc1)C2` , please?
Result: -2.26

Query: Entry C[C@H](Cc1ccc(C(F)(F)F)cc1)CN1CC2(CCS(=O)(=O)CC2)C1 (single isomer, unassigned) [232A*] : reported log10(EC50) = ?
Result: -2.25

Query: Any idea what log10(EC50) was measured for C[C@H](Cc1ccc(C(F)(F)F)nc1)CN1CCC2(CC1)CS(=O)(=O)C2 (single isomer, unassigned) ?
Result: -1.59

Query: Item `CC(C)(CN1CCC2(CC1)CS(=O)(=O)C2)Oc1ccc(C(F)(F)F)cc1` has what recorded log10(EC50)?
Result: -2.64

Query: Return reported log10(EC50); argument: `CC(C)(CN1CCC2(C1)CS(=O)(=O)C2)Oc1cccc(C(F)(F)F)c1`
Result: -2.00

Query: # lookup: log10(EC50) of `CC(C)(CN1CCC2(CC1)CS(=O)(=O)C2)Oc1cccc(C(F)(F)F)c1`
Result: -2.24

Query: What does the data say about its log10(EC50)? Entry: `O=S1(=O)CC2(CCN(CCOc3cnc(C4CCCCC4)c(Cl)c3)CC2)C1`
Result: -0.46

Query: Endpoint output: log10(EC50) of `O=S1(=O)CC2(CCN(CCOc3ccc(C(F)(F)F)cc3)C2)C1` . Value?
Result: -1.48

Query: # query: log10(EC50) of entry `CC(C)(CN1CCC2(C1)CS(=O)(=O)C2)Oc1ccc(C2CCC2)cc1`
Result: -0.72

Query: Quick check: log10(EC50) of O=S1(=O)CC2(CCN(CC[C@H](F)c3ccc(C(F)(F)F)nc3)CC2)C1 (single isomer, unassigned) [237A*] ?
Result: -1.57

Query: For `CC(C)(CN1CCC2(C1)CS(=O)(=O)C2)Oc1ccc(OC(F)(F)F)cc1` , what is its reported log10(EC50)?
Result: -1.92

Query: Return reported log10(EC50); argument: CCC(C)(C)c1ccc(CC(C)CN2CCC3(C2)CS(=O)(=O)C3)cc1 (racemic)
Result: -1.66

Query: For the compound shown here, `O=S1(=O)CC2(CCN(CC3(Oc4ccc(C(F)(F)F)cc4)CCCC3)CC2)C1` , give the reported log10(EC50).
Result: -0.66

Query: Consider the compound C[C@H](CN1CCC2(CC1)CS(=O)(=O)C2)Oc1ccc(C(F)(F)F)cc1 (single isomer, unassigned) [227B*] and give its measured log10(EC50).
Result: -2.62

Query: Dear colleague, I am looking for the recorded log10(EC50) of the following compound: C[C@@H](Cc1ccc(C(F)(F)F)cc1)CN1CCC2(CC1)CS(=O)(=O)C2 (single isomer, unassigned) [216A*]
Result: -2.85

Query: What measured log10(EC50) goes with C[C@H](CN1CCC2(CC1)CS(=O)(=O)C2)Oc1ccc(C(F)(F)F)nc1 (single isomer, unassigned) [Example 207B*] ?
Result: -1.20

Query: Which log10(EC50) is reported for this compound? C[C@@H](Cc1ccc(C(F)(F)F)nc1)CN1CCC2(C1)CS(=O)(=O)C2 (single isomer, unassigned) [118A*]
Result: -2.07

Query: Reported log10(EC50), compound C[C@H](Cc1ccc(C2CCC2)cc1)CN1CCC2(C1)CS(=O)(=O)C2 (single isomer, unassigned) [109B*] : ____
Result: -3.26

Query: May I ask what log10(EC50) has been recorded for CC(C)(CN1CC[C@]2(CCS(=O)(=O)C2)C1)Oc1ccc(C(F)(F)F)cc1 (single isomer, unassigned) [Compound 141B] ?
Result: -0.32

Query: Please give the measured log10(EC50) for this compound: `CC(C)(Cc1ccc(C(F)(F)F)nc1)CN1CCC2(C1)CS(=O)(=O)C2`
Result: -2.30
